B1: CAMK2B (parent)
chain: YQQIKAGAYDFPSPEWDTVTPEAK

Variants of: B1
Assay: protein stability index of a GFP-peptide fusion (GPS, HEK-293T) (PSI 1-6); higher = more stable;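 note: lentivirally expressed fusions sorted by FACS into six bins by GFP to DsRed ratio, PSI derived from sequencing read proportions per bin multiplied by bin number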
Settings: c terminus: a fixed tail appended
Tag: Criterion met if measured protein stability index is not below 3, Criterion not met if it is.

Evaluate E22M : protein stability index at minimum 3?
Criterion not met

Evaluate Q3V : protein stability index at minimum 3?
Criterion met

Evaluate T18L : protein stability index at minimum 3?
Criterion met

Evaluate Q3Y : protein stability index at minimum 3?
Criterion not met

Evaluate Q2P : protein stability index at minimum 3?
Criterion met
